Values from patent US8293208B2

test system: MDA-MB-231 cells; test: Inhibition of [14C]-D-glucose transport (hexose flux) in MDA-MB-231 cells; format: cell-based, human; conditions: [14C]-D-glucose, 25 minute incubation, MDA-MB-231, n=3
Measured endpoint: Ki (mM)

compound="OCC1(O)O[C@H](CF)[C@@H](O)[C@@H]1O (stereo partly shown)" value_observed=6.21
